target: AE1 (band 3) protein in human red blood cells (Homo sapiens, UniProt P02730); test: Inhibition of 36Cl exchange flux at 0°C after equilibration with WW781; type: cell-based; conditions: read-out: K eqW; [Cli = o] 150 mM, 0°C, mean ± SEM
Sequence (P02730 whole entry): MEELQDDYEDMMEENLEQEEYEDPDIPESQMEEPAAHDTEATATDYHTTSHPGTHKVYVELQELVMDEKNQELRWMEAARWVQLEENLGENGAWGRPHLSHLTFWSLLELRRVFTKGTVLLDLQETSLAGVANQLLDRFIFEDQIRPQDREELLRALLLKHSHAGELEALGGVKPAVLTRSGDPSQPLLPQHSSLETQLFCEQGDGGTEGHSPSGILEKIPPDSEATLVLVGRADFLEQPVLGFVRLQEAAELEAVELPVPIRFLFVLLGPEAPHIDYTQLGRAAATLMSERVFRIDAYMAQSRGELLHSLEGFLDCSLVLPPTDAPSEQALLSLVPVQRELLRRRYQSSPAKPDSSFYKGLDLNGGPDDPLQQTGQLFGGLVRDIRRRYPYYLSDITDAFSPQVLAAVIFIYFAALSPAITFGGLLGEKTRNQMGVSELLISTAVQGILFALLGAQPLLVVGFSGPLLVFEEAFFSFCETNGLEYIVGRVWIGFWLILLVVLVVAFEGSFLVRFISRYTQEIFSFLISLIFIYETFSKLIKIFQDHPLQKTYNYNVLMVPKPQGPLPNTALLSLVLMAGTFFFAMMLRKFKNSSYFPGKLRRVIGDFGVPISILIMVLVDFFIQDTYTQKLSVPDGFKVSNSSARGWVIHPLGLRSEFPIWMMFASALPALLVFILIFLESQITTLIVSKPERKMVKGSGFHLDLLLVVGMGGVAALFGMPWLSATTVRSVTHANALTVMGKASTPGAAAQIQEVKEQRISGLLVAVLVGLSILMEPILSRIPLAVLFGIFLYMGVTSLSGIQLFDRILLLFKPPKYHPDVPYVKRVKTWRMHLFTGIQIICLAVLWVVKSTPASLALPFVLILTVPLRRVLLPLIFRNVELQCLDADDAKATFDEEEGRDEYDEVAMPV
Result Type: IC50 (µM)
Respond with the bare value in µM.

// IC50 value for CCCCN1C(=O)C(C=CC=CC=C2C(=O)N(c3ccc(S(=O)(=O)O)cc3)N=C2C)C(=O)N(CCCC)C1=O : 0.066

* * *

target: AE1 (band 3) protein in human red blood cells (Homo sapiens); experiment: Inhibition of 36Cl exchange flux at 0°C after short exposure to WW781; assay type: cell-based; conditions: read-out: K 1W; [Cli = o] 20 mM, nystatin-treated cells, 0°C
Result Type: pIC50
Value format note: pIC50 is -log10 of concentration (mol/L); just state the number.

Data point: CCCCN1C(=O)C(C=CC=CC=C2C(=O)N(c3ccc(S(=O)(=O)O)cc3)N=C2C)C(=O)N(CCCC)C1=O ; pIC50 = 6.05
